molecular target: HIF1A; assay: HeLa, 100 nM transfected, 24 h, mean of 3; conditions: ASO
Bases are written 5' to 3'; sugars and linkages follow in the same order, as letters with counts (s phosphorothioate, o phosphodiester; PS: all linkages phosphorothioate). C may stand for cytosine or 5-methylcytosine; the collection does not tell. l = locked nucleic acid (LNA); d = 2'-deoxy (DNA)
# key: entry, value: caspase activation (% of PBS control)
Just the number, please.

Study these solved cases before continuing.
TGGCAAGCATCCTGTA (sugars l2 d1 l2 d6 l5, PS) = 477
TTACTGCCTTCTT (sugars l2 d9 l2, PS) = 148
GTTACTGCCTTCTTAC (sugars l5 d6 l1 d1 l3, PS) = 441
GTTACTGCCTTCTTAC (sugars ldddlddddddldlll, PS) = 162
GTTACTGCCTTCT (sugars l1 d1 l1 d7 l3, PS) = 170

Qu. Tell me the measured caspase activation (% of PBS control) of TTACTGCCTTCTT (sugars l2 d8 l1 d1 l1, PS) , please.
Ans. 198

Qu. Need caspase activation (% of PBS control), item ACTGCCTTCTTAC (sugars l3 d9 l1, PS)
Ans. 332

Qu. So what's the measured caspase activation (% of PBS control) for this one? GTTACTGCCTTCTTAC (sugars l2 d2 l1 d6 l5, PS)
Ans. 365

Qu. # lookup: caspase activation (% of PBS control) of TGGCAAGCATCCTGTA (sugars llldldddddddldll, PS)
Ans. 367

Qu. State the recorded caspase activation (% of PBS control) for this entry: TGGCAAGCATCCTGTA (sugars lldddddddddldldl, PS)
Ans. 423

Qu. caspase activation (% of PBS control) lookup needed for TGGCAAGCATCCTGTA (sugars ldllddddddddlddl, PS) , thanks.
Ans. 438
